biological target: human GPR119 (hGPR119) (Homo sapiens); construct: expressed in transfected cells; assay: cAMP accumulation assay (cAMP Gs dynamic HTRF kit); format: cell-based; details: 1 h; CHO-K1 cells stably expressing hGPR119; % activity normalized to Max/Min controls; 4-parameter fit
Sequence (Q8TDV5 whole entry): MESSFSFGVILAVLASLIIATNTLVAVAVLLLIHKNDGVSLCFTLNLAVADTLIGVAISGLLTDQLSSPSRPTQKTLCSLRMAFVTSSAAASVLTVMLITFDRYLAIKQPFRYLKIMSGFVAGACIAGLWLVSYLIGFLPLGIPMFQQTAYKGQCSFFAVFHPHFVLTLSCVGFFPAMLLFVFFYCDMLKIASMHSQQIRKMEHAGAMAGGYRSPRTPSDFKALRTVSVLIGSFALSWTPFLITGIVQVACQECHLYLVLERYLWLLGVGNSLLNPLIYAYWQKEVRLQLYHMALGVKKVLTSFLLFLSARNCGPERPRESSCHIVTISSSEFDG
Reported Emax values for the following molecules.

Here is how some molecules turned out for Emax.
>>> measured_value("O=C(Cc1ccc(OCCCC2CCN(c3ncc(CO)cn3)CC2)cc1F)N1CC(CNC[C@H](O)[C@@H](O)[C@H](O)[C@H](O)CO)C1 [Example 93]")
"50 to 100%"
>>> measured_value("COCC1(C(=O)NCC(CO)(CO)CO)CCN(C(=O)Cc2ccc(OCCCC3CCN(c4ncc(Cl)cn4)CC3)cc2F)C1 (stereo not shown) [Example 137]")
"100 to 130%"
>>> measured_value("O=C(Cc1ccc(OCCCC2CCN(c3ncc(Cl)cn3)CC2)cc1F)N1CCC(O)(CNC[C@H](O)[C@H](O)[C@H](O)CO)CC1 [Example 187]")
"100 to 130%"
>>> measured_value("CCOc1cnc(N2CCC(CCCOc3cc(F)c(CC(=O)N4CCC(O)(CNCC(CO)(CO)CO)C4)c(F)c3)CC2)nc1 (stereo not shown) [Example 189]")
"100 to 130%"
>>> measured_value("O=C(NCC(O)(CO)CO)C1CCN(C(=O)Cc2ccc(OCCCC3CCN(c4ncc(Cl)cn4)CC3)cc2F)CC1 [Example 41]")
"100 to 130%"
>>> measured_value("O=C(Cc1ccc(OCCCC2CCN(c3ncc(Cl)cn3)CC2)nc1)N1CC(CNC[C@H](O)[C@@H](O)[C@H](O)[C@H](O)CO)C1 [Example 179]")
"100 to 130%"
>>> measured_value("O=C(Cc1ccc(OCCCC2CCN(c3ncc(Cl)cn3)CC2)cc1F)N1CC(CNCCOCCOCCO)C1 [Example 51]")
"50 to 100%"
>>> measured_value("O=C(NCCCCCCS(=O)(=O)O)C1CN(C(=O)Cc2ccc(OCCCC3CCN(c4ncc(Cl)cn4)CC3)cc2F)C1 [Example 175]")
"100 to 130%"

# input Would you kindly share the measured Emax for O=C(Cc1ccc(OCCC2CCC23CCN(c2ncc(Cl)cn2)CC3)cc1F)N1CC(CNC[C@H](O)[C@@H](O)[C@H](O)[C@H](O)CO)C1 (stereo partly shown) [Example 138] ?
# output 50 to 100%

# input Same question for COCc1cnc(N2CCC(CCCOc3cc(F)c(CC(=O)N4CC(CNC[C@H](O)[C@@H](O)[C@H](O)[C@H](O)CO)C4)c(F)c3)CC2)nc1 [Example 94] please.
# output 100 to 130%

# input Same question for COCc1cnc(N2CCC(CCCOc3ccc(CC(=O)N4CC(CNCC[C@@H](O)C[C@@H](O)CC(=O)O)C4)c(F)c3)CC2)nc1 [Example 82] please.
# output 50 to 100%

# input Same question for CCCc1cnc(N2CCC(CCCOc3ccc(CC(=O)N4CC(CNCC(O)(CO)CO)C4)c(F)c3)CC2)nc1 [Example 71] please.
# output 100 to 130%

# input Same question for O=C(NCCCCCS(=O)(=O)O)C1CN(C(=O)Cc2ccc(OCCCC3CCN(c4ncc(Cl)cn4)CC3)cc2F)C1 [Example 174] please.
# output 100 to 130%
